METHOD_DESCRIPTION: Half life in Sprague-Dawley rat plasma at 4 mg/kg administered as single IV bolus dose
Format: ADME, organism-based
So I've got a bunch of compounds here, and I need their half-life values.
Please report the result as a number followed by the unit.

INSERT INTO measurements (structure_smiles_string, assay_value) VALUES
  ('COc1ccc(Cl)cc1NC[C@H]1[C@H](c2ccc(S(N)(=O)=O)cc2)C1(C)C', '3.9 h');

Could you now consider this next compound?
Report half-life, nothing else, for this compound: "COc1ccc(Cl)cc1NC[C@@H]1[C@@H](c2ccc(S(N)(=O)=O)cc2)C1(C)C"
1.2 h

----------
So I've got a bunch of molecules here, and I need their clearance values.
METHOD_DESCRIPTION: Plasma clearance in Sprague-Dawley rat at 4 mg/kg administered as single IV bolus dose
Assay type: ADME, organism-based
Give bare numbers, in mL/min/kg.

INSERT INTO results (structure_smiles_string, value_unit, assay_value) VALUES
  ('COc1ccc(Cl)cc1NC[C@@H]1[C@@H](c2ccc(S(N)(=O)=O)cc2)C1(C)C', 'mL/min/kg', 35);

Could you now consider this next molecule?
Report clearance, nothing else, for this molecule: "COc1ccc(Cl)cc1NC[C@H]1[C@H](c2ccc(S(N)(=O)=O)cc2)C1(C)C"
43

----------
TARGET: Neuronal acetylcholine receptor subunit alpha-7 (Rattus norvegicus)
METHOD_DESCRIPTION: Positive allosteric modulator activity at rat alpha7 nAChR expressed in GH4C1 cells assessed as potentiation of acetylcholine response at 3 uM at -70 mV holding potential preincubated for 30 secs followed by co-application with acetylcholine by automated patch clamp assay
Assay type: cell-based
READOUT_KIND: Activity

Take a look at these entries with their results.
INSERT INTO assay_data (compound, assay_value) VALUES
  ('Cc1ccc(F)cc1NC[C@H]1[C@H](c2ccc(S(N)(=O)=O)cc2)C1(C)C', '17400%'),
  ('Cc1cc(F)ccc1NC[C@@H]1[C@@H](c2ccc(S(N)(=O)=O)cc2)C1(C)C', '470%');

Answer for every listed entry: what is its Activity? The entries follow.
1. CC1(C)C(CNc2cc(F)ccc2OC(F)(F)F)C1c1ccc(S(N)(=O)=O)cc1 (racemic)
2. COc1ccc(Cl)cc1NC[C@@H]1[C@@H](c2ccc(S(N)(=O)=O)cc2)C1(C)C
3. COc1ccc(S(N)(=O)=O)cc1NCC1C(c2ccc(S(N)(=O)=O)cc2)C1(C)C (racemic)

1. 2440%
2. 1160%
3. < 100%

----------
So I've got a bunch of compounds here, and I need their logD values.
METHOD_DESCRIPTION: Lipophilicity, log D of the compound at pH 7.4
Assay type: physicochemical
MEASUREMENT_SETUP: buffer
One number for each entry.

Take a look at these entries with their results.
INSERT INTO assay_data (compound, readout_kind, assay_value) VALUES
  ('COc1ccc(Cl)cc1NC(=O)C1C(c2ccc(S(N)(=O)=O)cc2)C1(C)C (racemic)', 'logD', 3.7),
  ('COc1ccc(Cl)cc1NC(=O)C1C(c2ccc(S(N)(=O)=O)cc2)C12CCCC2 (racemic)', 'logD', 4.2);

Report logD, nothing else, for this compound: "COc1ccc(Cl)cc1NC[C@@H]1[C@@H](c2ccc(S(N)(=O)=O)cc2)C1(C)C"
4.2
